Assay: chemical genetic growth profiling, strain panel (AID 1159580);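 further: tested at 20 µM; growth read once vehicle control cultures reached saturation at 30 °C; 1 = growth at the plate median or of vehicle wells; lower values mean less growth of the strain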
Details: S. cerevisiae deletion strains, growth OD, locus YDL214C, strain PRR2, stronger effect = lower value
The campaign covered roughly 5,500 compounds. About 2,000 (36%) were called active. Not shown: some 18% with an inconclusive outcome. The list shows a part of the results.
outcome.measure: normalized growth
Answers are plain numbers.

Known results for molecules:
N#C/C(=C\c1ccccc1Sc1ccc(Cl)cc1)S(=O)(=O)c1ccccn1
0.901
N#C/C(=N/Nc1ccccc1Cl)S(=O)(=O)c1ccc(Cl)cc1
0.889
O=C(Nc1c(Br)c(C2CC2)nn1-c1ccccc1)C(Cl)(Cl)Cl
0.897

Note: attention shifts to another entry.
-- ask Reported normalized growth for `Cc1c(C(=O)N2CCCCC2)cc(-c2ccccc2)n1-c1ccccc1` : what is it?
-- reply 0.908
